- Tested On: T1, mouse TIGIT expressed on cells (mouse, UniProt P86176 29-249)
- T1 construct: whole, on cells; on Jurkat cells engineered to express mouse TIGIT; also called mTIGIT; Jurkat-mTIGIT
- T1 sequence (looked up): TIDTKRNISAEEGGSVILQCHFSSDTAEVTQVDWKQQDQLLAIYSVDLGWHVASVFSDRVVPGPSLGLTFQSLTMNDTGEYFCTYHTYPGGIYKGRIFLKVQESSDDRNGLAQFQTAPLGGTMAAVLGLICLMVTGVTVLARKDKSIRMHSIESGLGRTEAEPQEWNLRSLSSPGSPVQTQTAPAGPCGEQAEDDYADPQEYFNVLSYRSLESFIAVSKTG
- Experiment Summary: flow cytometry, 100 nM Ab, Jurkat-mTIGIT vs untransfected
Quantity Kind: FON (Fold Over Negative) (fold)

anti-TIGIT antibody clone 29523 (IgG) (antibody, V domains shown) VH: EVQLVESGGGVVQPGRSLRLSCAASGFTFGSYYMHWVRQAPGKGLEWVAVIWPDGSNKLYADSVKGRFTISRDNSKNTLYLQMNSLRAEDTALYYCAKPVPKSRALDVWGQGTMVTVSS VL: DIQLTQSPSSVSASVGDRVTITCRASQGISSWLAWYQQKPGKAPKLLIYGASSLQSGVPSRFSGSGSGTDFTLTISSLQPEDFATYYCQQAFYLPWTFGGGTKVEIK: 502
